System: green foxtail (Setaria viridis, SETVI)
Test: Post-emerge greenhouse herbicide activity screening, phytotoxicity rating
Format: in vivo
Conditions: 62.5 g ai/ha
Endpoint: SETVI phytotoxicity rating (0-100 scale)

1. Cn1nc(-c2cc(Oc3ncccn3)c(Cl)cc2F)c(Cl)c1[S+]([O-])C(F)F (centres unmarked) [Compound 5-1]; 60
2. Cn1c(C(F)(F)F)cc(=O)n(-c2cc(Oc3ccccc3)c(C#N)cc2F)c1=S [Compound 1-69]; 50
3. Cn1c(C(F)(F)F)cc(=O)n(-c2cc(Oc3ccccc3N)c(Cl)cc2F)c1=S [Compound 1-48]; 30
4. Fc1cc(Cl)c(Oc2ncccn2)cc1-c1nn2c(c1Br)CCCC2 [Compound 6-2]; 100
5. Cn1c(=S)n(C)c(=O)n(-c2cc(Oc3ncccn3)c(Cl)cc2F)c1=O [Compound 2-1]; 60
6. Cn1c(C(F)(F)F)cc(=O)n(-c2cc(Oc3ccccc3[N+](=O)[O-])c(Cl)cc2F)c1=S [Compound 1-49]; 0
7. Cn1c(=S)n(C)c(=O)n(-c2cc(Oc3ccccc3[N+](=O)[O-])c(Cl)cc2F)c1=O [Compound 2-17]; 0
8. Cn1c(C(F)(F)F)cc(=O)n(-c2cc(Oc3ncccn3)c(Cl)cc2F)c1=S [Compound 1-1]; 99

Value source: patent US6613718B2
